Data origin: patent US12521425B2

Tested on: HepG2 cells
Assay: SRB assay, cytotoxicity of topotecan ± safranal
Type: cell-based
Conditions: Homo sapiens, HepG2, HepG2, incubation with safranal for 24 or 48 h before topotecan; read-out: topotecan IC50
quantity kind: IC50 (nM)
// note: answer is a bare numeric in nM

Recorded result, CC[C@@]1(O)C(=O)OCc2c1cc1n(c2=O)Cc2cc3c(CN(C)C)c(O)ccc3nc2-1 [Topotecan, topotecan] , IC50: 1.6

###

System: HepG2 cells
Assay: SRB assay, cytotoxicity of topotecan ± safranal
Assay type: cell-based
Conditions: Homo sapiens, HepG2, HepG2, topotecan alone; read-out: topotecan IC50
quantity kind: IC50
Write your answer as a measured quantity: the number, then the unit.

Lab note: CC[C@@]1(O)C(=O)OCc2c1cc1n(c2=O)Cc2cc3c(CN(C)C)c(O)ccc3nc2-1 gave IC50 of 118 nM

###

Test system: HepG2 cells
Assay: SRB assay, cytotoxicity of topotecan ± safranal
Format: cell-based
Details: Homo sapiens, HepG2, HepG2, SRB; topotecan 48 h alone or after safranal 500 μM pre-incubation; read-out: IC50 of topotecan ± safranal
Procedure: SRB assay. The effect of safranal on the cytotoxicity of the topoisomerase 1 inhibitor topotecan was tested using the sulforhodamine-B (SRB) assay as previously described. […] The optical density (OD) at each well was measured spectrophotometrically at 564 nm with an ELISA microplate reader (Metertech. S960, USA). The IC50 values were calculated using sigmoidal concentration-response curve fitting models (Graph Pad, Prizm software).
quantity kind: IC50 (nM)
Give the value, in units of nM, as a plain number.

// sample CC[C@@]1(O)C(=O)OCc2c1cc1n(c2=O)Cc2cc3c(CN(C)C)c(O)ccc3nc2-1 , its IC50 was 118
